Attribution: the supplement of paper PMC13380429

Test system: Vero E6
Experiment: drug sensitivity score (DSS) for viability; higher = more toxic; extreme values may be limits of the assay
Conditions: 72 h
Measurement Type: drug sensitivity score
# print the numeric value only

# Compound, drug sensitivity score
rows = [
    ("CCCN1CCC[C@@H]2Cc3n[nH]cc3C[C@H]21 [quinpirol-(-)]", 0),
    ("Oc1cccc(-c2nc(N3CCOCC3)c3oc4ncccc4c3n2)c1 [PI-103]", 11),
    ("O=c1[nH]cnc2c1cnn2[C@@H]1O[C@H](CO)[C@@H](O)[C@H]1O [allopurinol-riboside]", 0),
    ("N[C@@H](CS)C(=O)O [L-cysteine]", 0),
    ("Nc1ccn([C@@H]2O[C@@](CO)(CCl)[C@@H](O)[C@H]2F)c(=O)n1 [ALS-8112]", 0),
    ("CCN(CC)CCOc1ccc(/C(=C(\\Cl)c2ccccc2)c2ccccc2)cc1 [clomifene]", 0.7),
    ("CC[C@H](C)[C@H](N)C1=N[C@H](C(=O)N[C@@H](CC(C)C)C(=O)N[C@H](CCC(=O)O)C(=O)N[C@H](C(=O)N[C@H]2CCCCNC(=O)[C@H](CC(N)=O)NC(=O)[C@@H](CC(=O)O)NC(=O)[C@H](Cc3cnc[nH]3)NC(=O)[C@@H](Cc3ccccc3)NC(=O)[C@H]([C@@H](C)CC)NC(=O)[C@@H](CCCN)NC2=O)[C@@H](C)CC)CS1 [bacitracin]", 0),
]

Let us examine a further case.
Incoming: Give the reported drug sensitivity score for CCCCCOC(=O)Nc1nc(=O)n([C@@H]2O[C@H](C)[C@@H](O)[C@H]2O)cc1F [capecitabine] (system: Vero E6).
Outgoing: 0

----------
System: A549-ACE2
Experiment: drug-induced phospholipidosis relative to tamoxifen; higher = more phospholipidosis
Conditions: 6.66667 µM; 72 h
Measurement Type: drug-induced phospholipidosis

# count of solved cases: 3
# Compound, Reported Value
data = [
    ("CCCOC(C(=O)OC1CCN(C)CC1)(c1ccccc1)c1ccccc1 [propiverine]", "80.2%"),
    ("CN1CCCN(C(c2ccccc2)c2ccc(Cl)cc2)CC1 (centres undefined) [homochlorcyclizine]", "47.4%"),
    ("OCCN1C[C@H](O)[C@@H](O)[C@H](O)[C@H]1CO [miglitol]", "-0.466%"),
]

Let us examine a further case.
Incoming: Give the reported drug-induced phospholipidosis for `c1ccc(-c2nn3c(c2-c2ccnc4cc(OCCN5CCOCC5)ccc24)CCC3)nc1` (system: A549-ACE2).
Outgoing: 15.3%

----------
# reported cell viability; entries follow
System: Calu-3
Assay: cell viability relative to DMSO; higher = less toxic
Conditions: 72 h; 100 nM
Your answer should be a plain number; it is taken to be in %.

# Compound, Readout Units, Reported Value
data = [
    ("OC1(c2ccc(Cl)c(C(F)(F)F)c2)CCN(CCCC(c2ccc(F)cc2)c2ccc(F)cc2)CC1", "%", 100),
    ("O=C1[C@@H]2[C@H]3CC[C@H](C3)[C@@H]2C(=O)N1C[C@@H]1CCCC[C@H]1CN1CCN(c2nsc3ccccc23)CC1", "%", 105),
    ("CN[C@@H](C)C(=O)N[C@H](C(=O)N1CCC[C@H]1C(=O)Nc1snnc1-c1ccccc1)C1CCCCC1", "%", 97.4),
    ("CCOC(=O)c1ncc2[nH]c3ccc(OCc4ccccc4)cc3c2c1COC", "%", 96.6),
]

Incoming: Which measured cell viability value corresponds to Cc1cccc(CN2CCN(C(c3ccccc3)c3ccc(Cl)cc3)CC2)c1 (stereo not given) ?
Outgoing: 95.7
